system: TTR; assay: TTR editing in primary human hepatocytes electroporated with Spy Cas9 protein loaded with dgRNAs (Table 7); format: cell-based; conditions: dgRNA electroporated with Spy Cas9 protein (RNP)
measured_parameter: Avg % Deletion (%)

INSERT INTO measurements (sequence_content, result_value) VALUES
  ('GACGACAGCCGUGGUGGAAU (tested as dual guide RNA, chemistry not given here) [CR003388]', 0.27),
  ('CGGCAAUGGUGUAGCGGCGG (tested as dual guide RNA, chemistry not given here) [CR003376]', 0.03),
  ('GGAGUAGGGGCUCAGCAGGG (tested as dual guide RNA, chemistry not given here) [CR003382]', 0.43),
  ('UCCACUCAUUCUUGGCAGGA (tested as dual guide RNA, chemistry not given here) [CR005298]', 17.57);
